Source listed as ChEMBL document CHEMBL1152465.

# measurement-target: Human immunodeficiency virus type 1 reverse transcriptase (Human immunodeficiency virus 1)
readout: pIC50
Reminder that pIC50 is minus the log10 of a molar concentration.

Reference set, count: 2
>>> print(df.to_string())
                                smiles_repr  readout  meas_value
0  CCc1c(Sc2cc(C)cc(C)c2)n(CC2CC=CC2)c(=O)[nH]c1=O    pIC50        6.68
1  CCc1c(C(=O)c2cc(C)cc(C)c2)n(CCC2CCCC2)c(=O)[nH]c1=O    pIC50        6.92

Task item: Requested field: pIC50. Item: Cc1cc(C)cc(Sc2c(C(C)C)c(=O)[nH]c(=O)n2CC2CCC2)c1
Reply: 7.70

* * *

# test-protocol: Cytotoxicity against human HeLa cells expressing CD4-LTR by XTT assay
# Type: cell-based
# test-parameters: read-out: TC50 (the source's name)
readout: CC50 (µM)
Enter your answer as a number in µM; do not include the unit.

Reference set, count: 6
                                smiles_repr  units  meas_value
0  Cc1cc(C)cc(C(=O)c2c(C(C)C)c(=O)[nH]c(=O)n2CC2=CCCC2)c1     µM        20.8
1  Cc1cc(C)cc(Oc2c(C(C)C)c(=O)[nH]c(=O)n2CC2CC=CC2)c1     µM         200
2  Cc1cc(C)cc(C(=O)c2c(C(C)C)c(=O)[nH]c(=O)n2CCC2CC=CC2)c1     µM        24.9
3  Cc1cc(C)cc(C(=O)c2c(C(C)C)c(=O)[nH]c(=O)n2CC2CC=CC2)c1     µM        1120
4  CCc1c(C(=O)c2ccccc2)n(CC2CC=CC2)c(=O)[nH]c1=O     µM        88.5
5  Cc1cc(C)cc(Sc2c(C(C)C)c(=O)[nH]c(=O)n2CC2CCCC2)c1     µM        10.6

Task item: Requested field: CC50. Item: CCc1c(Sc2cc(C)cc(C)c2)n(CC2CCC2)c(=O)[nH]c1=O
Reply: 509

Task item: Requested field: CC50. Item: Cc1cc(C)cc(Sc2c(C(C)C)c(=O)[nH]c(=O)n2CCC2=CCCC2)c1
Reply: 21.6

Task item: Requested field: CC50. Item: CCc1c(Oc2cc(C)cc(C)c2)n(CC2CC2)c(=O)[nH]c1=O
Reply: 1280

Task item: Requested field: CC50. Item: Cc1cc(C)cc(C(=O)c2c(C(C)C)c(=O)[nH]c(=O)n2CCC2CCCC2)c1
Reply: 20.6

* * *

# measurement-target: Human immunodeficiency virus type 1 reverse transcriptase (Human immunodeficiency virus 1, UniProt Q72547, K103N)
# test-protocol: Inhibition of HIV1 reverse transcriptase K103N mutant assessed as 32P-labeled GMP incorporation into nascent DNA strand
pIC50: −log10 of the molar value.
Think of 5 as a floor: if pIC50 stands on it or above, it is t; beneath it, f.

In [3]: df
Out[3]:
                                smiles_repr  group
0  Cc1cc(C)cc(C(=O)c2c(C(C)C)c(=O)[nH]c(=O)n2CCC2CCCC2)c1      t
1  Cc1cc(C)cc(Oc2c(C(C)C)c(=O)[nH]c(=O)n2CCC2CCCC2)c1      f
2  Cc1cc(C)cc(Oc2c(C(C)C)c(=O)[nH]c(=O)n2CC2=CCCC2)c1      t

Consider now this further compound.
Task item: Assess whether reported pIC50 for Cc1cc(C)cc(Sc2c(C(C)C)c(=O)[nH]c(=O)n2CC2CC2)c1 sits at 5 or higher.
Reply: t
